B1: glmS ribozyme (parent)
chain: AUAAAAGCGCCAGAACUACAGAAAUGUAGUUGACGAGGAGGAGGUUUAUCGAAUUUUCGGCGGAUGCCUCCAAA

# Variants of: B1
# PROTOCOL SUMMARY: self-cleavage kobs at 640 uM GlcN6P; higher = faster cleavage; RNA array
# APPLIED CONDITIONS: with glucosamine-6-phosphate
This sample holds only a part of the variants without activity.
Assign class by self-cleavage kobs at 640 uM GlcN6P: not lower than 0.0002 s⁻¹ means Condition met; lower than 0.0002 s⁻¹ means Condition not met.

• C11U G29U U54A = Condition not met
• C8A A12C G13A = Condition not met
• G9C U30A U49C U56G = Condition not met
• A52U G63C = Condition not met
• A15G U31A G35U C67G = Condition not met
• G9A G29A G63U = Condition not met
• C16U A52G C71G = Condition not met
• U54G C70U = Condition met
• U31A C50G C58A = Condition met
• A14U A39G = Condition met
• A48C U69C = Condition not met
• U56A G62U = Condition not met
• C8G U47A A48C C70G = Condition not met
• A15C U47A = Condition met
• G44A U45G U49A C50G = Condition not met
• C50U U56G C70G = Condition met
• G35U G66U = Condition not met
• U47A C71G = Condition met
• U30A U31C A39U = Condition met
• G9A A48G = Condition not met
• U31A U56G = Condition met
• G13C A48U A53U C61G = Condition not met
